target: T1, human CD47-his (Sino Biological, CAT#12283-HCCH-50) (human, UniProt Q08722 19-139, limits assumed); experiment: SPR (Biacore): antibody captured with human Fab capture kit on CM5 chip, human CD47-his flowed over
T1 construct: Bought protein used as analyte in Biacore; also called 人CD47-his; human CD47-his antigen; not shown: His tag of the bought protein
T1 sequence (Q08722 19-139 limits assumed): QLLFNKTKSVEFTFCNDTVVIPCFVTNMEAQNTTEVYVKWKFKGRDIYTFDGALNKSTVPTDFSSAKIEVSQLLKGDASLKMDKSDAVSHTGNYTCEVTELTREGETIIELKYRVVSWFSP
property_name: Kd

[[record]]
binder = "hu167-1 (antibody, V domains shown) VH: QVQLVQSGAEVKKPGASVKVSCKASGYTFTSYWMHWVRQAPGQGLEWMGNIDPSDSETHYNQKFKDRVTMTRDTSISTAYMELSRLRSDDTAVYYCARWGYLGRSAMDYWGQGTTVTVSS VL: DIQMTQSPSSLSASVGDRVTITCRTSKSISKFLAWYQQKPGKAPKLLIYSGSTLQSGVPSRFSGSGSGTDFTLTISSLQPEDFATYYCQQHNEYPWTFGGGTKVEIK"
reported_value = "0.664 nM"

[[record]]
binder = "chimeric antibody ch-167 (antibody, V domains shown) VH: QVQLQQPGAELVRPGSSVKLSCKASGYTFTSYWMHWVKQRPIQGLEWVGNIDPSDSETHYNQKFKDKATLTVDKSSSTAYMQLSSLTSEDSAVYYCARWGYLGRSAMDYWGQGTSVTVSS VL: DVQITQSPSYLAASPGETITINCRTSKSISKFLAWYQEKPGKTHKLLIYSGSTLQSGIPSRFSGSGSGTDFTLTISSLEPEDFAMYYCQQHNEYPWTFGGGTKLEIK"
reported_value = "0.325 nM"

[[record]]
binder = "hu055-5 (antibody, V domains shown) VH: QVQLVQSGAEVKKPGASVKVSCKASGYTFTSSYLHWVRQAPGQRLDWIGWIYPESGNTKYNERFKGRATLTADTSASTAYMELSSLRSEDTAVYYCARRGDVFFAYWGQGTTVTVSS VL: DIVMTQSPDSLAVSLGERATINCKSSQSLLTSGKQKNYLTWYQQKPGQPPKLLIYWASTRESGVPDRFSGSGSGTDFTLTISSLQAEDVAVYYCQNDYSYPLTFGQGTKLEIKR"
reported_value = "0.182 nM"

